Would you kindly list IC50 for each of these compounds?
# System: HCC1143
# TEST NAME: In vitro potency against breast cancer cell lines (CellTiter Glo)
# Assay type: cell-based
# TEST CONDITIONS: Homo sapiens, HCC1143, 72 h; read-out: absolute IC50 HCC1143

>>> measured("CN[C@@H]1C[C@H]2O[C@@](C)([C@@H]1OC)n1c3ccccc3c3c4c(c5c6ccccc6n2c5c31)C(=O)NC4")
"11 nM"
>>> measured("CN1CCOc2c1c(N[C@H]1CC[C@@](C)(O)CC1)nn1c(-c3cccc(OC(F)(F)F)c3)nnc21")
"5560 nM"

IC50 for Cn1c(=O)n(-c2ccc(C(C)(C)C#N)cc2)c2c3cc(-c4cnc5ccccc5c4)ccc3ncc21 ?
145 nM

====

Would you kindly list pIC50 for each of these compounds?
# Tested on: Jeko-1
# TEST NAME: In vitro potency against leukemia cell lines (CellTiter Glo)
# Assay type: cell-based
# TEST CONDITIONS: Homo sapiens, 72 hours, read-out: absolute IC50 JeKo-1
Give bare numbers, as −log10 of the molar value.

>>> measured("CN1CCOc2c1c(N[C@H]1CC[C@@](C)(O)CC1)nn1c(-c3cccc(OC(F)(F)F)c3)nnc21")
5.18

Moving on to another compound below.
pIC50 for Cn1c(=O)n(-c2ccc(C(C)(C)C#N)cc2)c2c3cc(-c4cnc5ccccc5c4)ccc3ncc21 ?
7.17

====

Reported pIC50, PIM-1 (Homo sapiens).
pIC50: −log10 of the molar value.

>>> measured("CN1CCOc2c1c(N[C@H]1CC[C@@](C)(O)CC1)nn1c(-c3cccc(OC(F)(F)F)c3)nnc21 [Example 1]")
"8.30 to 9.00"

Moving on to another compound below.
pIC50 for CC1(O)CCC(Nc2nn3c(-c4cccc(OC(F)(F)F)c4)nnc3c3c2CCCO3)CC1 (centres unmarked) [Example 3] ?
> 9.00

====

# SUBJECT OF TEST: PIM-2 (Homo sapiens)
# Sequence (Q9P1W9 whole entry): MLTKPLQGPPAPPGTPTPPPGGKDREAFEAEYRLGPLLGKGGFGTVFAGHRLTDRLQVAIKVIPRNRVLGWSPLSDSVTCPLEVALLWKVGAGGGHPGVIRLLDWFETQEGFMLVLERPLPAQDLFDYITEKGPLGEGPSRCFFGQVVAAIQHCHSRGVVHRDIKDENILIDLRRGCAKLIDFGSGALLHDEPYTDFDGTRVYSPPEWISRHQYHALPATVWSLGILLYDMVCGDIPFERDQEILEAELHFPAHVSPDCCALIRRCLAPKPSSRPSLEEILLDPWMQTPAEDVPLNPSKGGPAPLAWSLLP
pIC50: −log10 of the molar value.
ENDPOINT: pIC50

pIC50 for CN1CCOc2c1c(N[C@H]1CC[C@@](C)(O)CC1)nn1c(-c3ccc(F)c(C(F)(F)F)c3)nnc21 ?
8.30 to 9.00

====

# SUBJECT OF TEST: PIM-3 (Homo sapiens)
# Construct: purchased Millipore 14-738
# TEST NAME: Protein PIM kinase assay (ADP Hunter Plus)
# Assay type: biochemical
# TEST CONDITIONS: 100 μM ATP, 100 μM PIMtide
ENDPOINT: IC50

IC50 for CN1CCOc2c1c(N[C@H]1CC[C@@](C)(O)CC1)nn1c(-c3ccc(F)c(C(F)(F)F)c3)nnc21 ?
1 to 5 nM

====

# Test system: BT-474
# TEST NAME: In vitro potency against breast cancer cell lines (CellTiter Glo)
# Type: cell-based
# TEST CONDITIONS: Homo sapiens, BT-474, 72 h; read-out: absolute IC50 BT-474
ENDPOINT: pIC50
One number for each entry, as −log10 of the molar value.

>>> measured("CN[C@@H]1C[C@H]2O[C@@](C)([C@@H]1OC)n1c3ccccc3c3c4c(c5c6ccccc6n2c5c31)C(=O)NC4")
7.12
>>> measured("CN1CCOc2c1c(N[C@H]1CC[C@@](C)(O)CC1)nn1c(-c3cccc(OC(F)(F)F)c3)nnc21")
5.11

pIC50 for Cn1c(=O)n(-c2ccc(C(C)(C)C#N)cc2)c2c3cc(-c4cnc5ccccc5c4)ccc3ncc21 ?
6.94

====

# Test system: OCI-M1
# TEST NAME: In vitro potency against leukemia cell lines (CellTiter Glo)
# Format: cell-based
# TEST CONDITIONS: 72 hours, read-out: absolute IC50 OCI-M1
ENDPOINT: pIC50
Numbers only, as −log10 of the molar value.

>>> measured("CN[C@@H]1C[C@H]2O[C@@](C)([C@@H]1OC)n1c3ccccc3c3c4c(c5c6ccccc6n2c5c31)C(=O)NC4 [Staurosporine]")
7.32

Moving on to another compound below.
pIC50 for Cn1c(=O)n(-c2ccc(C(C)(C)C#N)cc2)c2c3cc(-c4cnc5ccccc5c4)ccc3ncc21 [Dactolisib, dactolisib] ?
6.90

====

# Tested on: HCC1954
# TEST NAME: In vitro potency against breast cancer cell lines (CellTiter Glo)
# Assay type: cell-based
# TEST CONDITIONS: Homo sapiens, HCC1954, 72 h; read-out: absolute IC50 HCC1954
# Experimental: To prepare the complete medium FBS and appropriate additives were added according to the information sheet provided by the vendor and mixed gently. […] The cell pellet was suspended by gently pipetting, and the cell numbers counted with Vi-cell XR and the cells adjusted to appropriate density. […] c. […] Meanwhile the day 0 plate was measured by Cell TiterGlo as listed below. […]
Would you kindly list pIC50 for each of these compounds?
Answers are plain numbers, as −log10 of the molar value.

>>> measured("CN1CCOc2c1c(N[C@H]1CC[C@@](C)(O)CC1)nn1c(-c3cccc(OC(F)(F)F)c3)nnc21")
5.09

Moving on to another compound below.
pIC50 for Cn1c(=O)n(-c2ccc(C(C)(C)C#N)cc2)c2c3cc(-c4cnc5ccccc5c4)ccc3ncc21 ?
7.84
